tested on: RPMI-8226 leukemia; assay: NCI-60 one-dose screen, 48 h (100 = growth as untreated, 0 = no growth, -100 = all killed); conditions: 10 µM unless noted
The panel holds about 83,000 compounds, 20% with a hit somewhere; the sample as a whole holds those more often.
Kind request: treat 10% as inclusive, so growth at 10% or higher is 1.0, anything lower is 0.0.

These solved cases illustrate the format of a correct answer.
INSERT INTO results (compound, class) VALUES
  ('COc1ccc2nc(-c3ccc(OC)c(OC)c3)cc(-c3nnc(SCC(=O)Nc4ccc(/C(C)=N\O)cc4)n3-c3ccccc3)c2c1', 1.0),
  ('CCOC(=O)NCCc1nc2c([nH]1)c(=O)n(C)c(=O)n2C', 1.0),
  ('CC1(c2ccccc2Cl)NC(=O)NC1=O (stereo unspecified)', 1.0),
  ('C=C1C(=O)O[C@H]2[C@H]1CC/C(C=Nc1c(N)cc(C(F)(F)F)cc1Br)=C\CC[C@@]1(C)O[C@@H]21', 0.0),
  ('O=C1C(=O)c2c(nc3ccc(C(F)(F)F)cn23)-c2ccccc21', 0.0),
  ('C1=CC2=CC=C3C=CC=C4C(c5nc6c7ccccc7c7ccccc7c6[nH]5)=CC(=C1)C2C34 (stereo unspecified)', 1.0),
  ('COc1ccc2nc(-c3ccc(Cl)cc3)cc(C(=O)N3N=C(c4ccc(N)cc4)CC3c3ccccc3)c2c1 (stereo unspecified)', 1.0),
  ('O=C(Nc1ccc2ncnc(Nc3ccc(F)c(Cl)c3)c2c1)c1ccccc1', 1.0);

Answer whether growth of COc1ccc2nc3c(n2c1)C(=O)C(=O)c1ccccc1-3 is greater than or equal to 10%.
0.0

Try this compound too: CCOC(=O)c1c(C)nc2c(c1N)/C(=C/c1cccs1)C(=O)N2c1ccc(OC)cc1
1.0

Try this compound too: CC(C)(C)c1ccc(O)c(Cc2cc(C(C)(C)C)ccc2O)c1
1.0

Try this compound too: COc1cc2cc(c1Cl)N(C)C(=O)C[C@H](OC(=O)[C@H](C)N(C)C(=O)CCS)C[C@]1(C)O[C@H]1[C@H](C)[C@@H]1C[C@@](O)(NC(=O)O1)[C@H](OC)/C=C/C=C(\C)C2
1.0

Try this compound too: C=C1C(=O)O[C@H]2[C@H]1CC/C(COC(=O)CCCCCCCC(=O)OC/C1=C/CC[C@@]3(C)O[C@H]3[C@H]3OC(=O)C(=C)[C@@H]3CC1)=C\CC[C@@]1(C)O[C@@H]21
0.0

Try this compound too: CC(C)(C#N)c1cc(F)cc(C(=O)Nc2cc(Nc3ncccc3-c3ncnc4nc[nH]c34)ccc2F)c1
1.0

Try this compound too: Nc1ccccc1NS(=O)(=O)c1ccc(Cl)cc1
1.0

Try this compound too: COc1cccc(NC(=O)Nc2ccc(Oc3ncnc4[nH]c(C)c(C)c34)cc2)c1
1.0

Try this compound too: Cc1nnc(/N=C2\NC(=O)/C(=C/c3ccc(N(C)C)cc3)S2)s1
1.0

Try this compound too: O=C(O)c1cc(N=Nc2ccc(-c3ccc(N=Nc4c(S(=O)(=O)O)cc5ccc(Nc6ccccc6)cc5c4O)cc3)cc2)ccc1O
1.0

Reference for the values: PubChem BioAssay (NCI)
